- assayed-system: NTPDase2 (ectonucleoside triphosphate diphosphohydrolase 2) (Homo sapiens, UniProt Q9Y5L3)
- Sequence (Q9Y5L3 whole entry): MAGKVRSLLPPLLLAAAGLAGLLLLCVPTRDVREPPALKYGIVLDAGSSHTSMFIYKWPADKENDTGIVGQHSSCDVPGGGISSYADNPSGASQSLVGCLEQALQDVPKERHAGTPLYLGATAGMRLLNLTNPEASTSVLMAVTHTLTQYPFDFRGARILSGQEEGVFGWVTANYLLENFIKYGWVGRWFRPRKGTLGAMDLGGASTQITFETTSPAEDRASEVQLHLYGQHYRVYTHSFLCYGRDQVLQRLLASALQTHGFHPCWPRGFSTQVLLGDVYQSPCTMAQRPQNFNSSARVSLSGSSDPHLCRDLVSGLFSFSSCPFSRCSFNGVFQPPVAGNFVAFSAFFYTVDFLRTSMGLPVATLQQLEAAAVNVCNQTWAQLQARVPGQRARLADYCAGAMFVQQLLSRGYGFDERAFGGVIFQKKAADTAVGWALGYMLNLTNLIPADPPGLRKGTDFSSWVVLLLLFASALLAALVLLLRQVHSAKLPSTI
- test: Stability assessed as human NTPDase2-mediated compound hydrolysis
- Assay type: ADME
- experimental-parameters: human NTPDase2 enzyme, read-out: Drug degradation
measured-metric: metabolised (%)
One number for each entry, in %.

smiles_entry=CNc1ncnc2c1ncn2[C@@H]1O[C@H](COP(=O)(O)OP(=O)(O)OP(=O)(O)O)[C@@H](O)[C@H]1O measured_metric=metabolised unit=% readout_number=77

Give metabolised for all compounds that follow.
1. CCCCCCSc1nc(N)c2nnn([C@@H]3O[C@H](COP(=O)(O)OP(=O)(O)OP(=O)(O)O)[C@@H](O)[C@H]3O)c2n1
2. O=P(O)(O)OP(=O)(O)OP(=O)(O)OC[C@H]1O[C@@H](n2cnc3c(N(Cc4ccccc4)Cc4ccccc4)ncnc32)[C@H](O)[C@@H]1O
3. CN(C)c1ncnc2c1ncn2[C@@H]1O[C@H](COP(=O)(O)O)[C@@H](O)[C@H]1O
4. CCN(CC)c1ncnc2c1ncn2[C@@H]1O[C@H](COP(=O)(O)OP(=O)(O)OP(=O)(O)O)[C@@H](O)[C@H]1O

Out:
11.5
3
0
0

---

- assayed-system: Ectonucleoside triphosphate diphosphohydrolase 2 (Homo sapiens)
- test: Inhibition of recombinant human NTPDase2 transfected in COS-7 cells using ATP substrate at 100 uM relative to control
- Format: cell-based
measured-metric: inhibition (%)
Give bare numbers, in %.

Worked examples follow.
smiles_entry=CCCCCCSc1nc(N)c2ncn([C@@H]3O[C@H](COP(=O)(O)OP(=O)(O)CP(=O)(O)O)[C@@H](O)[C@H]3O)c2n1 readout_number=70
smiles_entry=CCN(CC)c1ncnc2c1ncn2[C@@H]1O[C@H](COP(=O)(O)OP(=O)(O)OP(=O)(O)O)[C@@H](O)[C@H]1O readout_number=42
smiles_entry=O=P(O)(O)OP(=O)(O)OP(=O)(O)OC[C@H]1O[C@@H](n2cnc3c(N(Cc4ccccc4)Cc4ccccc4)ncnc32)[C@H](O)[C@@H]1O readout_number=0

Please examine the following record next.
In: Name the recorded inhibition for O=P(O)(O)OC[C@H]1O[C@@H](n2cnc3c(N(Cc4ccccc4)Cc4ccccc4)ncnc32)[C@H](O)[C@@H]1O .
Out: 10

---

- test: Stability assessed as human compound hydrolysis
- experimental-parameters: read-out: Drug degradation
measured-metric: metabolised (%)
Numbers only, in %.

smiles_entry=O=P(O)(O)OC[C@H]1O[C@@H](n2cnc3c(N(Cc4ccccc4)Cc4ccccc4)ncnc32)[C@H](O)[C@@H]1O measured_metric=metabolised readout_number=5
smiles_entry=O=P(O)(O)OP(=O)(O)OP(=O)(O)OC[C@H]1O[C@@H](n2cnc3c(N(Cc4ccccc4)Cc4ccccc4)ncnc32)[C@H](O)[C@@H]1O measured_metric=metabolised readout_number=13
smiles_entry=CN(C)c1ncnc2c1ncn2[C@@H]1O[C@H](COP(=O)(O)O)[C@@H](O)[C@H]1O measured_metric=metabolised readout_number=2

Please examine the following record next.
In: Name the recorded metabolised for CCN(CC)c1ncnc2c1ncn2[C@@H]1O[C@H](COP(=O)(O)OP(=O)(O)OP(=O)(O)O)[C@@H](O)[C@H]1O .
Out: 20

---

- assayed-system: UniProt:P49961
- test: Stability assessed as human NTPDase1-mediated compound hydrolysis
- Format: ADME
- experimental-parameters: human NTPDase1 enzyme, read-out: Drug degradation
measured-metric: metabolised (%)
Answers are plain numbers, in %.

smiles_entry=CCCCCCSc1nc(N)c2ncn([C@@H]3O[C@H](COP(=O)(O)OP(=O)(O)CP(=O)(O)O)[C@@H](O)[C@H]3O)c2n1 measured_metric=metabolised readout_number=2.3
smiles_entry=CN(C)c1ncnc2c1ncn2[C@@H]1O[C@H](COP(=O)(O)OP(=O)(O)OP(=O)(O)O)[C@@H](O)[C@H]1O measured_metric=metabolised readout_number=74
smiles_entry=CCCCCCSc1nc(N)c2nnn([C@@H]3O[C@H](COP(=O)(O)OP(=O)(O)OP(=O)(O)O)[C@@H](O)[C@H]3O)c2n1 measured_metric=metabolised readout_number=44
smiles_entry=O=P(O)(O)OC[C@H]1O[C@@H](n2cnc3c(N(Cc4ccccc4)Cc4ccccc4)ncnc32)[C@H](O)[C@@H]1O measured_metric=metabolised readout_number=6

Please examine the following record next.
In: Record CCN(CC)c1ncnc2c1ncn2[C@@H]1O[C@H](COP(=O)(O)OP(=O)(O)OP(=O)(O)O)[C@@H](O)[C@H]1O : what is its metabolised with UniProt:P49961?
Out: 22

---

- assayed-system: NTPDase3 (ectonucleoside triphosphate diphosphohydrolase 3) (Homo sapiens)
- Sequence (O75355 whole entry): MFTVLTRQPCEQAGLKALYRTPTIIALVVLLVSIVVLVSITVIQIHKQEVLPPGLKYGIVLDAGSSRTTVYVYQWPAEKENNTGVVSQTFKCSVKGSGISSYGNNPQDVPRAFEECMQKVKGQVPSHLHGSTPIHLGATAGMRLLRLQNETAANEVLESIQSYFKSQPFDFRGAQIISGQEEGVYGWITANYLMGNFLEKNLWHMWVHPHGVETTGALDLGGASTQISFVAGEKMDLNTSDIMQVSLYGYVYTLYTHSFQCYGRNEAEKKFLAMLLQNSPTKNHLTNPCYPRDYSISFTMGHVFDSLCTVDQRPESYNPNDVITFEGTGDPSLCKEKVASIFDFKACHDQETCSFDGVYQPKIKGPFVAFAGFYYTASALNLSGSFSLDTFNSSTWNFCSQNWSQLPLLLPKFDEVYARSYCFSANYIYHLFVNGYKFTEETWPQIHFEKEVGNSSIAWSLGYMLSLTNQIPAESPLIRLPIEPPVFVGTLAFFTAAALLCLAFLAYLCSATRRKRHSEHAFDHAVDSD
- test: Stability assessed as human NTPDase3-mediated compound hydrolysis
- Assay type: ADME
- experimental-parameters: human NTPDase3 enzyme, read-out: Drug degradation
measured-metric: metabolised (%)
Answers are plain numbers, in %.

Worked examples follow.
smiles_entry=CN(C)c1ncnc2c1ncn2[C@@H]1O[C@H](COP(=O)(O)O)[C@@H](O)[C@H]1O measured_metric=metabolised readout_number=4
smiles_entry=CCCCCCSc1nc(N)c2ncn([C@@H]3O[C@H](COP(=O)(O)OP(=O)(O)CP(=O)(O)O)[C@@H](O)[C@H]3O)c2n1 measured_metric=metabolised readout_number=0.8
smiles_entry=O=P(O)(O)OP(=O)(O)OP(=O)(O)OC[C@H]1O[C@@H](n2cnc3c(N(Cc4ccccc4)Cc4ccccc4)ncnc32)[C@H](O)[C@@H]1O measured_metric=metabolised readout_number=8

Give metabolised for all compounds that follow.
1. O=P(O)(O)OC[C@H]1O[C@@H](n2cnc3c(N(Cc4ccccc4)Cc4ccccc4)ncnc32)[C@H](O)[C@@H]1O
2. CCN(CC)c1ncnc2c1ncn2[C@@H]1O[C@H](COP(=O)(O)OP(=O)(O)OP(=O)(O)O)[C@@H](O)[C@H]1O

Out:
10
2

---

- assayed-system: NTPDase2 (ectonucleoside triphosphate diphosphohydrolase 2) (Homo sapiens)
- test: Stability assessed as human NTPDase2-mediated compound hydrolysis
- Type: ADME
- experimental-parameters: human NTPDase2 enzyme, read-out: Drug degradation
measured-metric: metabolised (%)
Answers are plain numbers, in %.

Give metabolised for all molecules that follow.
1. CN(C)c1ncnc2c1ncn2[C@@H]1O[C@H](COP(=O)(O)OP(=O)(O)OP(=O)(O)O)[C@@H](O)[C@H]1O
2. Nc1ncnc2c1nnn2[C@@H]1O[C@H](COP(=O)(O)OP(=O)(O)OP(=O)(O)O)[C@@H](O)[C@H]1O
3. O=P(O)(O)OC[C@H]1O[C@@H](n2cnc3c(N(Cc4ccccc4)Cc4ccccc4)ncnc32)[C@H](O)[C@@H]1O

Out:
1. 73
2. 38.5
3. 3

In: Name the recorded metabolised for CCCCCCSc1nc(N)c2ncn([C@@H]3O[C@H](COP(=O)(O)OP(=O)(O)CP(=O)(O)O)[C@@H](O)[C@H]3O)c2n1 .
Out: 2.8

---

- assayed-system: NTPDase1 (ectonucleoside triphosphate diphosphohydrolase 1) (Homo sapiens)
- Sequence (P49961 whole entry): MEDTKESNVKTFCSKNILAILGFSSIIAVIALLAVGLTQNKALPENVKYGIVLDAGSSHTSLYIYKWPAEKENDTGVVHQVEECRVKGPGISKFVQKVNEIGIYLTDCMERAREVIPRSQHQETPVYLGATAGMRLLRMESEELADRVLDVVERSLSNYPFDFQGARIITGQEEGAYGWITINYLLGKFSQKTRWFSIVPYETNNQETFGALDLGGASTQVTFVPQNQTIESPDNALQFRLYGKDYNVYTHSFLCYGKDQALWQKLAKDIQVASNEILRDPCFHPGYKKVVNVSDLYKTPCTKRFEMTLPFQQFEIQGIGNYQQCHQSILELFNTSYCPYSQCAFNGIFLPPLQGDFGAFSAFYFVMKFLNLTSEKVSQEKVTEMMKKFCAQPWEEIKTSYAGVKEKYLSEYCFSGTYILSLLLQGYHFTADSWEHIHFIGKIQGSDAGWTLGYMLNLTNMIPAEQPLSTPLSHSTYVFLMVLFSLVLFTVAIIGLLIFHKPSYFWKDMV
- test: Stability assessed as human NTPDase1-mediated compound hydrolysis
- Type: ADME
- experimental-parameters: human NTPDase1 enzyme, read-out: Drug degradation
measured-metric: metabolised (%)
Give bare numbers, in %.

smiles_entry=O=P(O)(O)OP(=O)(O)OP(=O)(O)OC[C@H]1O[C@@H](n2cnc3c(N(Cc4ccccc4)Cc4ccccc4)ncnc32)[C@H](O)[C@@H]1O measured_metric=metabolised readout_number=14
smiles_entry=Nc1ncnc2c1nnn2[C@@H]1O[C@H](COP(=O)(O)OP(=O)(O)OP(=O)(O)O)[C@@H](O)[C@H]1O measured_metric=metabolised readout_number=73

Give metabolised for all compounds that follow.
1. CN(C)c1ncnc2c1ncn2[C@@H]1O[C@H](COP(=O)(O)O)[C@@H](O)[C@H]1O
2. CNc1ncnc2c1ncn2[C@@H]1O[C@H](COP(=O)(O)OP(=O)(O)OP(=O)(O)O)[C@@H](O)[C@H]1O

Out:
1: 0; 2: 87
